experiment: Plasma clearance in Swiss mouse at 2 mg/kg, iv and 20 mg/kg, po by LC/MS analysis; assay type: ADME, organism-based

{"columns": ["smiles.repr", "clearance / mL/min/kg"],
 "data": [
  ["FC(F)(F)c1ccc(N(c2cccnc2)C2CCN(c3ccc(C(F)(F)F)cn3)CC2)cc1", 8.1],
  ["O=C([C@@H](c1ccc(Cl)cc1)c1cccnc1)N1CCN(c2ccc(C(F)(F)F)cc2)CC1", 7.7]
]}

====

tested on: Trypanosoma cruzi; assay: Antitrypanosomal activity against Trypanosoma cruzi Tulahuen 6 infected in Swiss mouse assessed as reduction in blood parasitemia at 20 mg/kg, po qd administered on day 8 post-infection for 10 days by microscopic analysis; assay type: functional, organism-based; design: dose 20 mg/kg
Active and inactive are the calls of the source. The calls are words filed in the database; no cut-off is given here.
Outcomes: yes (active), no (inactive)

{"columns": ["molecule", "discrete.label"],
 "data": [
  ["Fc1cc(Cl)ccc1C(NC1CCN(c2ccc(C(F)(F)F)cc2)CC1)c1cccnc1 (configuration not stated)", "yes"],
  ["N#Cc1cccc(N2CCC(NC(c3cccnc3)c3ccc(Cl)cc3F)CC2)c1 (configuration not stated)", "no"],
  ["O=C(C(c1ccc(Cl)cc1)c1cccnc1)N1CCN(c2ccc(C(F)(F)F)cc2)CC1 (racemic)", "yes"],
  ["Cc1ncsc1C(=O)N1CCC(NC(c2ccc(C(F)(F)F)cc2)c2cccnc2)CC1 (configuration not stated)", "no"],
  ["CC(C)(C)NC(=O)N1CCC(NC(c2ccc(C(F)(F)F)cc2)c2cccnc2)CC1 (configuration not stated)", "no"],
  ["N#Cc1ccc(C(c2cccnc2)N2CCC(NC(=O)c3c(F)cccc3F)CC2)cc1 (configuration not stated)", "no"],
  ["FC(F)(F)c1ccc(N(c2cccnc2)C2CCN(c3ccc(C(F)(F)F)cn3)CC2)cc1", "yes"],
  ["CC[C@@H]([C@H](C)O)n1ncn(-c2ccc(N3CCN(c4ccc(OC[C@@H]5CO[C@@](Cn6cncn6)(c6ccc(F)cc6F)C5)cc4)CC3)cc2)c1=O", "yes"],
  ["Cc1cc(C(=O)NC2CCN(C(c3ccc(C#N)cc3)c3cccnc3)CC2)n(C)n1 (configuration not stated)", "no"],
  ["N#Cc1ccc(C(O)(c2ccc(C(F)(F)F)cc2)c2cccnc2)cc1 (configuration not stated)", "yes"],
  ["N#Cc1ccc(C(O)(c2ccc(C(F)(F)F)cc2)c2cccnc2)c(F)c1 (configuration not stated)", "yes"],
  ["N#Cc1ccc(C(c2cccnc2)N2CCC(NC(=O)c3ccccc3)CC2)cc1 (configuration not stated)", "no"]
]}

====

assay: Kinetic aqueous solubility of the compound in phosphate buffer at pH 6.5 by nephelometric analysis
reported.property: solubility kinetic (µg/mL)

{"columns": ["compound", "display.unit", "qualifier", "test.value"],
 "data": [
  ["CC(C)(C)CC(=O)N1CCC(N(c2ccc(Cl)cc2)c2cccnc2)CC1", "µg/mL", "=", 6.3],
  ["O=C(C(c1ccc(Cl)cc1)c1cccnc1)N1CCN(c2ccc(C(F)(F)F)nc2)CC1 (stereo not given)", "µg/mL", "=", 6.3],
  ["O=C(C(c1ccc(Cl)cc1)c1cccnc1)N1CCN(c2ccc(C(F)(F)F)cc2)CC1 (racemic)", "µg/mL", "=", 1.6],
  ["N#Cc1ccc(C(C(=O)N2CCN(c3ccc(C(F)(F)F)nc3)CC2)c2cccnc2)cc1 (stereo not given)", "µg/mL", "=", 25],
  ["N#Cc1ccccc1N1CCC(N(c2ccc(C(F)(F)F)cc2)c2cccnc2)CC1", "µg/mL", "<", 1.6]
]}

====

Reported solubility kinetic values for the following molecules.
experiment: Kinetic aqueous solubility of the compound in phosphate buffer at pH 2 by nephelometric analysis; details: phosphate buffer

{"columns": ["molecule", "solubility kinetic"],
 "data": [
  ["Cc1ccccc1CN1CCC(N(c2ccc(C(F)(F)F)cc2)c2cccnc2)CC1", "> 100 µg/mL"],
  ["FC(F)(F)c1ccc(N(c2cncnc2)C2CCN(c3ccc(C(F)(F)F)cn3)CC2)cc1", "12.5 µg/mL"],
  ["CS(=O)(=O)c1ccc(N2CCN(C(=O)C(c3ccc(Cl)cc3)c3cccnc3)CC2)cc1 (configuration not stated)", "> 100 µg/mL"],
  ["CS(=O)(=O)c1ccc(N2CCN(C(=O)C(c3ccc(C#N)cc3)c3cccnc3)CC2)cc1 (configuration not stated)", "25 µg/mL"],
  ["N#Cc1ccccc1N1CCC(N(c2ccc(C(F)(F)F)cc2)c2cccnc2)CC1", "> 100 µg/mL"],
  ["O=C(C(c1ccc(Cl)cc1)c1cccnc1)N1CCN(c2ccc(C(F)(F)F)cc2)CC1 (racemic)", "> 100 µg/mL"],
  ["N#Cc1ccc(N(c2cccnc2)C2CCN(c3ccc(C(F)(F)F)cc3)CC2)cc1", "25 µg/mL"],
  ["O=C([C@@H](c1ccc(Cl)cc1)c1cccnc1)N1CCN(c2ccc(C(F)(F)F)cc2)CC1", "> 100 µg/mL"],
  ["FC(F)(F)c1ccc(N(c2cccnc2)C2CCN(c3ccc(Cl)cc3)CC2)cc1", "> 100 µg/mL"],
  ["FC(F)(F)c1ccc(N(c2cccnc2)C2CCN(c3ccc(C(F)(F)F)cn3)CC2)cc1", "> 100 µg/mL"],
  ["CS(=O)(=O)c1ccc(N2CCC(N(c3ccc(C#N)cc3)c3cccnc3)CC2)cc1", "25 µg/mL"],
  ["O=C([C@H](c1ccc(Cl)cc1)c1cccnc1)N1CCN(c2ccc(C(F)(F)F)cc2)CC1", "> 100 µg/mL"],
  ["N#Cc1ccc(C(C(=O)N2CCN(c3ccc(C(F)(F)F)cn3)CC2)c2cccnc2)cc1 (configuration not stated)", "50 µg/mL"],
  ["O=C(C(c1ccc(Cl)cc1)c1cccnc1)N1CCN(c2ccc(C(F)(F)F)nc2)CC1 (configuration not stated)", "50 µg/mL"],
  ["N#Cc1ccc(C(C(=O)N2CCN(c3ccc(C(F)(F)F)nc3)CC2)c2cccnc2)cc1 (configuration not stated)", "> 100 µg/mL"],
  ["CC(C)(C)CC(=O)N1CCC(N(c2ccc(Cl)cc2)c2cccnc2)CC1", "> 100 µg/mL"],
  ["N#Cc1ccc(C(C(=O)N2CCN(c3ccc(C(F)(F)F)cc3)CC2)c2cccnc2)cc1 (configuration not stated)", "> 100 µg/mL"]
]}

====

test system: Mus musculus; assay: Toxicity in Swiss mouse at 20 mg/kg, po; details: in vivo

{"columns": ["molecule", "Activity"],
 "data": [
  ["CS(=O)(=O)c1ccc(N2CCC(N(c3ccc(C#N)cc3)c3cccnc3)CC2)cc1", "Non-toxic"],
  ["CS(=O)(=O)c1ccc(N2CCN(C(=O)C(c3ccc(C#N)cc3)c3cccnc3)CC2)cc1 (stereo not drawn)", "Non-toxic"],
  ["CC(C)(C)NC(=O)N1CCC(NC(c2ccc(C(F)(F)F)cc2)c2cccnc2)CC1 (stereo not drawn)", "Non-toxic"]
]}

====

assay: Half life in Swiss mouse at 20 mg/kg, po by LC/MS analysis; format: ADME, organism-based; parameters: dose 20 mg/kg, route oral; conditions: in vivo
Reported half-life values for the following molecules.
reported.property: half-life (h)

{"columns": ["smiles.repr", "reported.property", "test.value"],
 "data": [
  ["O=C([C@@H](c1ccc(Cl)cc1)c1cccnc1)N1CCN(c2ccc(C(F)(F)F)cc2)CC1", "half-life", 8.2],
  ["FC(F)(F)c1ccc(N(c2cccnc2)C2CCN(c3ccc(C(F)(F)F)cn3)CC2)cc1", "half-life", 12.5]
]}

====

assay: Kinetic aqueous solubility of the compound in phosphate buffer at pH 6.5 by nephelometric analysis
reported.property: solubility kinetic (µg/mL)

{"columns": ["compound", "qualifier", "test.value"],
 "data": [
  ["N#Cc1ccc(N(c2cccnc2)C2CCN(c3ccc(C(F)(F)F)cc3)CC2)cc1", "<", 1.6],
  ["CS(=O)(=O)c1ccc(N2CCN(C(=O)C(c3ccc(C#N)cc3)c3cccnc3)CC2)cc1 (stereo not drawn)", "=", 3.1],
  ["FC(F)(F)c1ccc(N(c2cncnc2)C2CCN(c3ccc(C(F)(F)F)cn3)CC2)cc1", "<", 1.6],
  ["CS(=O)(=O)c1ccc(N2CCN(C(=O)C(c3ccc(Cl)cc3)c3cccnc3)CC2)cc1 (stereo not drawn)", "=", 6.3],
  ["O=C([C@H](c1ccc(Cl)cc1)c1cccnc1)N1CCN(c2ccc(C(F)(F)F)cc2)CC1", "=", 1.6],
  ["Cc1ccccc1CN1CCC(N(c2ccc(C(F)(F)F)cc2)c2cccnc2)CC1", "=", 3.1],
  ["N#Cc1ccc(C(C(=O)N2CCN(c3ccc(C(F)(F)F)cc3)CC2)c2cccnc2)cc1 (stereo not drawn)", "=", 3.1],
  ["FC(F)(F)c1ccc(N(c2cccnc2)C2CCN(c3ccc(C(F)(F)F)cn3)CC2)cc1", "<", 1.6],
  ["O=C(C(c1ccc(Cl)cc1)c1cccnc1)N1CCN(c2ccc(C(F)(F)F)cn2)CC1 (stereo not drawn)", "=", 3.1],
  ["CS(=O)(=O)c1ccc(N2CCC(N(c3ccc(C#N)cc3)c3cccnc3)CC2)cc1", "<", 1.6],
  ["N#Cc1ccc(C(C(=O)N2CCN(c3ccc(C(F)(F)F)cn3)CC2)c2cccnc2)cc1 (stereo not drawn)", "=", 6.3],
  ["O=C([C@@H](c1ccc(Cl)cc1)c1cccnc1)N1CCN(c2ccc(C(F)(F)F)cc2)CC1", "=", 1.6],
  ["FC(F)(F)c1ccc(N(c2cccnc2)C2CCN(c3ccc(Cl)cc3)CC2)cc1", "<", 1.6]
]}
